Tested on: Alopecurus myosuroides (ALOMY)
Experimental protocol: Pre-emergence herbicidal activity, Alopecurus myosuroides
Format: in vivo
Set-up: key: 5=total damage to plant; 0=no damage to plant
Condition context: 250 g/ha, evaluated after 13 days
Readout kind: Control of ALOMY after pre-emergence application (score 0-5)
Format: numeric value only, no unit, no commentary.

[[record]]
chem_smiles = "Cc1cnc(CNC(=O)Nc2ccc(-c3cncc(F)c3)nc2C(F)(F)F)cn1"
readout_number = 0

[[record]]
chem_smiles = "CCCCNC(=O)Nc1ccc(-c2cncc(F)c2)nc1C(F)(F)F"
readout_number = 0

[[record]]
chem_smiles = "CSCCCNC(=O)Nc1ccc(-c2cncc(F)c2)nc1C(F)(F)F"
readout_number = 0


Could you now consider this next compound?
Problem: May I ask what Control of ALOMY after pre-emergence application (score 0-5) has been recorded for CC(C)(C)CNC(=O)Nc1ccc(-c2cncc(F)c2)nc1C(F)(F)F ?
Solution: 1

----------
Tested on: Lolium perenne (LOLPE)
Experimental protocol: Pre-emergence herbicidal activity, Lolium perenne
Assay type: in vivo
Condition context: 1000 g/ha, evaluated after 13 days, Test 1b
Readout kind: LOLPE damage score (0-5)
// keep it numeric: no unit symbol after the value

Study these solved cases before continuing.
[[record]]
chem_smiles = "CC(C)(C)OC(=O)Nc1ccc(-c2cncnc2)nc1C(F)(F)F"
assayed_target = "Lolium perenne (LOLPE)"
readout_number = 1

[[record]]
chem_smiles = "Cc1nc(-c2cccnc2)ccc1NC(=O)OC(C)(C)C"
assayed_target = "Lolium perenne (LOLPE)"
readout_number = 2

[[record]]
chem_smiles = "CC(C)(C)OC(=O)Nc1ccc(-c2cncc(F)c2)nc1C(F)(F)F"
assayed_target = "Lolium perenne (LOLPE)"
readout_number = 1

[[record]]
chem_smiles = "Cc1nc(-c2cncc(C#N)c2)ccc1NC(=O)OC(C)(C)C"
assayed_target = "Lolium perenne (LOLPE)"
readout_number = 1


Proceed to the following item.
Problem: Give LOLPE damage score (0-5) (Lolium perenne (LOLPE)) of the following molecule: CC(C)(C)OC(=O)Nc1ccc(-c2cncnc2)nc1Cl
Solution: 1

----------
Form field: Control of AVEFA after post-emergence application (score 0-5) (one value per entry).
Tested on: Avena fatua (AVEFA)
Experimental protocol: Post-emergence herbicidal activity, Avena fatua
Type: in vivo
Condition context: 1000 g/ha, evaluated after 13 days
Description: Seeds of a variety of test species were sown in standard soil in pots: Triticum aestivium (TRZAW), Avena fatua (AVEFA), Alopecurus myosuroides (ALOMY), Echinochloa crus-galli (ECHCG), Lolium perenne (LOLPE), Zea Mays (ZEAMX), Abutilon theophrasti (ABUTH), Amaranthus retroflexus (AMARE) and Setaria faberi (SETFA). […] After 13 days, the test was evaluated (5=total damage to plant; 0=no damage to plant).
Reply: number alone, nothing else.

[[record]]
compound = "CC(C)(C)OC(=O)Nc1ccc(-c2cncc(F)c2)nc1C#N [Compound B34]"
readout_number = 2

[[record]]
compound = "O=C(Nc1ccc(-c2cncc(F)c2)nc1C(F)(F)F)OCC(F)(F)F [Compound B57]"
readout_number = 3

[[record]]
compound = "CC(C)(C)OC(=O)N(C(=O)OC(C)(C)C)c1ccc(-c2cncc(F)c2)nc1C#N [Compound B114]"
readout_number = 4

[[record]]
compound = "O=C(Nc1cncnc1)Nc1ccc(-c2cncc(F)c2)nc1C(F)(F)F [Compound B70]"
readout_number = 1


Problem: Param item = C=CCN(C(=O)OC(C)(C)C)c1ccc(-c2cncc(F)c2)nc1C(F)(F)F [Compound B9] ; retrieve measured Control of AVEFA after post-emergence application (score 0-5).
Solution: 3

Problem: Entry under review: O=C(Nc1ccccc1)Nc1ccc(-c2cncc(F)c2)nc1C(F)(F)F [Compound B71] . Reported Control of AVEFA after post-emergence application (score 0-5)?
Solution: 2

Problem: Using the record for O=C(Nc1ccc(-c2cncc(F)c2)nc1C(F)(F)F)N1CCSC1 [Compound B68] , report its Control of AVEFA after post-emergence application (score 0-5).
Solution: 3

Problem: Give its Control of AVEFA after post-emergence application (score 0-5) value. Item: CN(C)C(=O)Nc1ccc(-c2cncc(F)c2)nc1C(F)(F)F [Compound B52]
Solution: 3

Problem: What Control of AVEFA after post-emergence application (score 0-5) value was documented for this compound, CC(C)NC(=O)Nc1ccc(-c2cncc(F)c2)nc1C(F)(F)F [Compound B37] ?
Solution: 3

----------
Each entry below carries its recorded Control of LOLPE after pre-emergence application (score 0-5).
Test system: Lolium perenne (LOLPE)
Experimental protocol: Pre-emergence herbicidal activity, Lolium perenne
Format: in vivo
Condition context: 1000 g/ha, evaluated after 13 days
# print the numeric value only

Example results:
[[record]]
chem_smiles = "O=C(Nc1ccc(-c2cncc(F)c2)nc1C(F)(F)F)OCC1CC1"
readout_number = 2

[[record]]
chem_smiles = "CC#Cc1cncc(-c2ccc(NC(=O)OC(C)(C)C)c(C)n2)c1"
readout_number = 1

[[record]]
chem_smiles = "Cc1cc(CNC(=O)Nc2ccc(-c3cncc(F)c3)nc2C(F)(F)F)c(C(F)(F)F)o1"
readout_number = 1

[[record]]
chem_smiles = "O=C1NCCN1c1ccc(-c2cncc(F)c2)nc1C(F)(F)F"
readout_number = 0

[[record]]
chem_smiles = "CN1CCN(c2ccc(-c3cncc(F)c3)nc2C(F)(F)F)C1=O"
readout_number = 0

[[record]]
chem_smiles = "O=C(Nc1ccc(-c2cncc(F)c2)nc1C(F)(F)F)N1CCS(=O)(=O)C1"
readout_number = 1


Problem: Could you share which Control of LOLPE after pre-emergence application (score 0-5) value was measured for C#CCOC(=O)Nc1ccc(-c2cncc(F)c2)nc1C(F)(F)F ?
Solution: 1

Problem: Can you share its Control of LOLPE after pre-emergence application (score 0-5)? I mean this molecule: N#CC1(NC(=O)Nc2ccc(-c3cncc(F)c3)nc2C(F)(F)F)CCC1
Solution: 1

----------
Test system: Zea Mays (ZEAMX)
Experimental protocol: Post-emergence herbicidal activity, Zea Mays
Format: in vivo
Set-up: key: 5=total damage to plant; 0=no damage to plant
Condition context: 1000 g/ha, evaluated after 13 days, Test 2b
Entries and their ZEAMX damage score (0-5)
Reply with just the number.

Problem: Request - read-out ZEAMX damage score (0-5) | tested on Zea Mays (ZEAMX) | compound CCOC(=O)Nc1ccc(-c2cncc(F)c2)nc1C(F)(F)F [Compound B15]
Solution: 5

----------
The entries below are paired with their reported Control of ECHCG after post-emergence application (score 0-5).
Tested on: Echinochloa crus-galli (ECHCG)
Experimental protocol: Post-emergence herbicidal activity, Echinochloa crus-galli
Type: in vivo
Parameters: key: 5=total damage to plant; 0=no damage to plant
Condition context: 1000 g/ha, evaluated after 13 days
Protocol: Seeds of a variety of test species were sown in standard soil in pots: Triticum aestivium (TRZAW), Avena fatua (AVEFA), Alopecurus myosuroides (ALOMY), Echinochloa crus-galli (ECHCG), Lolium perenne (LOLPE), Zea Mays (ZEAMX), Abutilon theophrasti (ABUTH), Amaranthus retroflexus (AMARE) and Setaria faberi (SETFA). […] After 13 days, the test was evaluated (5=total damage to plant; 0=no damage to plant).
Keep the answer to the number alone.

// below: answered molecules
[[record]]
molecule = "COCCOC(=O)Nc1ccc(-c2cncc(F)c2)nc1C(F)(F)F"
readout_number = 5

[[record]]
molecule = "O=C(NOCC(F)F)Nc1ccc(-c2cncc(F)c2)nc1C(F)(F)F"
readout_number = 3

[[record]]
molecule = "CC(C)(C#N)OC(=O)Nc1ccc(-c2cncc(F)c2)nc1C(F)(F)F"
readout_number = 3

[[record]]
molecule = "O=C(Nc1ccc(-c2cncc(F)c2)nc1C(F)(F)F)OCC(F)(F)F"
readout_number = 4

[[record]]
molecule = "C=CCN(C(=O)OC(C)(C)C)c1ccc(-c2cncnc2)nc1C(F)(F)F"
readout_number = 3

[[record]]
molecule = "CC(C)(C)OC(=O)N(C(=O)OC(C)(C)C)c1ccc(-c2cncc(F)c2)nc1C#N"
readout_number = 5

[[record]]
molecule = "COC(=O)c1nc(-c2cncc(F)c2)ccc1N(C(=O)OC(C)(C)C)C(=O)OC(C)(C)C"
readout_number = 1

[[record]]
molecule = "C#CC(C)(C)NC(=O)Nc1ccc(-c2cncc(F)c2)nc1C(F)(F)F"
readout_number = 5

[[record]]
molecule = "O=C(Nc1ccc(-c2cncc(F)c2)nc1C(F)(F)F)OC1CCS(=O)(=O)C1 (centres unmarked)"
readout_number = 4

[[record]]
molecule = "CNC(=O)Nc1ccc(-c2cncc(F)c2)nc1C(F)(F)F"
readout_number = 4


Problem: Would you mind telling me what Control of ECHCG after post-emergence application (score 0-5) value was observed for O=C(Nc1ccc(-c2cncc(F)c2)nc1C(F)(F)F)OC1CCCCC1 ?
Solution: 0

Problem: Record request: Control of ECHCG after post-emergence application (score 0-5) value, item Cc1cc(CNC(=O)Nc2ccc(-c3cncc(F)c3)nc2C(F)(F)F)c(C(F)(F)F)o1
Solution: 1
